Recorded melting point values for a group of compounds are listed next.
A complete answer gives the number and then names the unit.

Some entries whose results are on file:
{"STRUCTURE SMILES": "FCCNc1ccc(Nc2ccc3cnccc3c2)nc1", "ENDPOINT VALUE": "191.4 °C"}
{"STRUCTURE SMILES": "FCCOc1ccc(Nc2ccc3cnccc3c2)nc1", "ENDPOINT VALUE": "104.6 °C"}
{"STRUCTURE SMILES": "Cl.FCCCOc1ccc(Nc2ccc3cnccc3c2)nc1", "ENDPOINT VALUE": "249.3 °C"}
{"STRUCTURE SMILES": "CN(CCF)c1ccc(Nc2ccc3cnccc3c2)nc1", "ENDPOINT VALUE": "146.3 °C"}
{"STRUCTURE SMILES": "Cc1ccc(Nc2ccc3cnccc3c2)nc1F", "ENDPOINT VALUE": "203.3 °C"}

Given the compound Cc1cnc(Nc2ccc3cnccc3c2)cc1F , write its reported melting point.
182.53 °C

Give the value of melting point reported for the following: FCCc1ccc(Nc2ccc3cnccc3c2)nc1
208.5 °C

Identify melting point associated with the compound Cl.FCCCNc1ccc(Nc2ccc3cnccc3c2)nc1
285.1 °C

Note down melting point recorded for FCOc1ccc(Nc2ccc3cnccc3c2)nc1
173.1 °C

Reference source for all entries: patent US12006302B2
